Test: compounds reducing fatty acid uptake into lipids – ZR-82 cells, Enamine library, screen 3, primary screen (AID 1347385);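 further: 3 h compound exposure then viability read about one day after UV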
Conditions: ZR-82 CHO cells, pyrene fatty acid UV survival, CellTiter Blue, peroxisome-deficient CHO-K1 mutant line, plus DGAT-1, DGAT-2 and ACAT inhibitors; at 10 µM unless noted
About 85 (0.4%) of roughly 20,000 compounds were called active.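 How the source made its calls: active means cell survival signal 2 SD away from solvent-only control wells, confirmed on one or two retests; inactive means the rest.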 Many of the other results were omitted from the sample, so actives are more common in it than they were.
Valid outcomes are listed here; reply with one: Yes = active, No = inactive

Q: What did this assay record as the result for COc1ccc(OC)c(C2CC(c3ccco3)=NN2S(C)(=O)=O)c1 (stereo not given) ?
Ans: No

Q: What did this assay record as the result for O=S1(=O)CCC(NS(=O)(=O)c2ccc(Cl)c(Cl)c2)C1 (stereo not given) ?
Ans: No

Q: What did this assay record as the result for CC(C)CC(NC(=O)NC1CCCCC1)C(=O)O (stereo not given) ?
Ans: No

Q: What did this assay record as the result for S=C(NCC1CCCO1)NNc1ncnc2sc3c(c12)CCCC3 (stereo not given) ?
Ans: No

###

Assay: compounds reducing fatty acid uptake into lipids – ZR-82 cells, Enamine library, screen 3, primary screen (AID 1347385);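 further: 3 h compound exposure then viability read about one day after UV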
Conditions: ZR-82 CHO cells, pyrene fatty acid UV survival, CellTiter Blue, peroxisome-deficient CHO-K1 mutant line, plus DGAT-1, DGAT-2 and ACAT inhibitors; at 10 µM unless noted
Among all 20,000 compounds or so, about 85 (0.4%) were called active.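 The calls were made as follows: active = cell survival signal 2 SD away from solvent-only control wells, confirmed on one or two retests; inactive = the rest.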 For the sample, actives were picked, then their nearest neighbours and some compounds at random.
Valid outcomes are listed here; reply with one: 1 (active), -1 (inactive)

Consider the worked cases shown below.
Clc1ccc2nc(N/N=C/c3cccc4nccnc34)nc(-c3ccccc3)c2c1 -1
CC(C)N(CCNS(=O)(=O)c1ccccc1)C(C)C -1
Clc1ccc2c(NN=C3c4ccccc4-c4ccccc43)ccnc2c1 1
S=C1NC(c2ccccc2)=NCN1N(c1ccccc1)c1ccccc1 -1
COC(=O)c1noc(C(=O)OC)c1O -1

Now turn to the next molecule.
Q: What did this assay record as the result for Fc1ccc(NC(=S)NNc2ccnc3cc(Cl)ccc23)cc1Cl ?
Ans: -1

###

Assay: compounds reducing fatty acid uptake into lipids – ZR-82 cells, Enamine library, screen 3, primary screen (AID 1347385);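 further: 3 h compound exposure then viability read about one day after UV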
Conditions: ZR-82 CHO cells, pyrene fatty acid UV survival, CellTiter Blue, peroxisome-deficient CHO-K1 mutant line, plus DGAT-1, DGAT-2 and ACAT inhibitors; at 10 µM unless noted
In all, about 20,000 compounds went through this assay and about 85 (0.4%) were called active.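 The calls were made as follows: active = cell survival signal 2 SD away from solvent-only control wells, confirmed on one or two retests; inactive = the rest.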 The list comes from a sample in which actives are over-represented; it also holds close analogues and randomly drawn compounds.
Valid outcomes are listed here; reply with one: class 1 (active), class 0 (inactive)

molecule	answer.label
CC(Sc1nnc(-c2ccc(C(C)(C)C)cc2)o1)c1nnc(-c2ccc([N+](=O)[O-])cc2)o1 (stereo unspecified)	class 0
CCN(CC)c1ccc([P+](CC)(c2ccc(N(CC)CC)cc2)c2ccc(N(CC)CC)cc2)cc1	class 0
COc1ccc(C2=CC(c3ccc(OC)c(OC)c3)n3ncnc3N2)cc1OC (stereo unspecified)	class 0
Cc1ccc(C)n1-n1c(C)nc2sc3c(c2c1=O)CCCC3	class 0
NC(=O)NCCCC(=O)O	class 0
CN(C)C(=O)CN(C)C(=O)CN1C(=O)NC2(CCCCCC2)C1=O	class 0
Cc1ccc(C)c(C2C3=C(CC(C)(C)CC3=O)Nc3nc(-c4cccnc4)nn32)c1 (stereo unspecified)	class 0
CC(C)CN(C1CCS(=O)(=O)C1)S(=O)(=O)c1ccc(Cl)cc1 (stereo unspecified)	class 0
CC(C)CNC(=O)NC(=O)C1CCCCC1	class 0
CC(C)CN(C(=O)CSc1nncn1C)C1CCS(=O)(=O)C1 (stereo unspecified)	class 0

Q: What did this assay record as the result for O=S(=O)(Nc1ncccn1)c1ccc(NC(=S)Nc2cccnc2)cc1 ?
Ans: class 0

Q: What did this assay record as the result for Clc1ccc2nc(CSc3ccc4ccccc4c3)cn2c1 ?
Ans: class 0

Q: What did this assay record as the result for FC(F)Oc1ccc(C2Oc3ccccc3C3CC(c4ccccc4)=NN32)cc1 (stereo unspecified) ?
Ans: class 0
